Task for the reader: assign each of the following compounds its reported IC50 Ratio Aur B/Aur A.
- measurement.target: Aurora B (Homo sapiens (Human))
- experiment.summary: Aurora B kinase assay (mobility shift assay)
- Assay type: biochemical
- condition.summary: ratio of Aurora B IC50 to Aurora A IC50
One number for each entry.

{"smiles.notation": "Cc1cc(Nc2ccc(C)c(C[C@@]3(C(=O)O)CCN(Cc4cccc(Cl)c4F)[C@H](C)C3)n2)n[nH]1", "attribute.measured": "IC50 Ratio Aur B/Aur A", "numeric.readout": 979}
{"smiles.notation": "Cc1cc(Nc2cc(C)c(F)c(CC3(C(=O)O)CCN(Cc4c(F)ccc(Cl)c4F)CC3)n2)n[nH]1", "attribute.measured": "IC50 Ratio Aur B/Aur A", "numeric.readout": 3835}
{"smiles.notation": "Cc1cc(Nc2nc(C[C@@]3(C(=O)O)CCN(Cc4cccc(Cl)c4F)[C@H](C)C3)c(F)cc2F)n[nH]1", "attribute.measured": "IC50 Ratio Aur B/Aur A", "numeric.readout": 451}

# next compound below
Entry Cc1cc(Nc2nc(C[C@@]3(C(=O)O)CCN(Cc4cccc(Cl)c4F)[C@H](C)C3)cc(C)c2F)n[nH]1 : reported IC50 Ratio Aur B/Aur A = ?
1219

###

Task for the reader: assign each of the following compounds its reported bioavailability.
- experiment.summary: PK in rat
- Format: in vivo
- condition.summary: rat, plasma; SD male rats, PO: 10 mg/kg vs IV: 3 mg/kg
One number for each entry, in %.

Could I get bioavailability for every one of these entries?
1. Cc1cc(Nc2nc(C[C@@]3(C(=O)O)CCN(Cc4cccc(Cl)c4F)[C@H](C)C3)cc(C)c2F)n[nH]1 [Example 78]
2. Cc1cc(Nc2cc(C)c(F)c(C[C@@]3(C(=O)O)CCN(Cc4cccc(Cl)c4F)[C@H](C)C3)n2)n[nH]1 [Example 49]
3. Cc1cc(Nc2nc(C[C@@]3(C(=O)O)CCN(Cc4cccc(Cl)c4F)[C@H](C)C3)ccc2F)[nH]n1 [Example 5]
4. Cc1cc(Nc2cc(C)c(F)c(C[C@@]3(C(=O)O)CCN(Cc4c(F)ccc(Cl)c4F)[C@H](C)C3)n2)n[nH]1 [Example 50]

[85.8, 127, 168, 140]

Entry Cc1cc(Nc2ccc(F)c(C[C@@]3(C(=O)O)CCN(Cc4c(F)ccc(Cl)c4F)[C@H](C)C3)n2)n[nH]1 [Example 6] : reported bioavailability = ?
86

###

Task for the reader: assign each of the following molecules its reported IC50 Ratio Aur B/Aur A.
- measurement.target: Aurora B (Homo sapiens (Human), UniProt Q96GD4)
- Sequence (Q96GD4 whole entry): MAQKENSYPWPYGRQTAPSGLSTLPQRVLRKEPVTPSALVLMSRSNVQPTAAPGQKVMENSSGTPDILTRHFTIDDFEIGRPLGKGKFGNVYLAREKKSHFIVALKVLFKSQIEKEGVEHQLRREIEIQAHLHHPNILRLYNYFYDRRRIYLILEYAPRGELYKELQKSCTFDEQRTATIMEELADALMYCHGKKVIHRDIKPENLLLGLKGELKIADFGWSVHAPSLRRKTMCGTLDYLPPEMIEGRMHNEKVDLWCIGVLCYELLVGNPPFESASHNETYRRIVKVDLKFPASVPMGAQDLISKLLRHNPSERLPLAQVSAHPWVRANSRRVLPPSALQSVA
- experiment.summary: Aurora B kinase assay (mobility shift assay)
- Type: biochemical
- condition.summary: ratio of Aurora B IC50 to Aurora A IC50
One number for each entry.

Some solved cases for reference:
{"smiles.notation": "Cc1cc(Nc2nc(C[C@@]3(C(=O)O)CCN(Cc4cccc(Cl)c4F)[C@H](C)C3)ccc2F)[nH]n1", "attribute.measured": "IC50 Ratio Aur B/Aur A", "numeric.readout": 1311}
{"smiles.notation": "Cc1cc(Nc2ccc(Cl)c(C[C@@]3(C(=O)O)CCN(Cc4cccc(Cl)c4F)[C@H](C)C3)n2)n[nH]1", "attribute.measured": "IC50 Ratio Aur B/Aur A", "numeric.readout": 2264}
{"smiles.notation": "Cc1cc(Nc2ccc(F)c(C[C@@]3(C(=O)O)CCN(Cc4cccc(F)c4F)[C@H](C)C3)n2)n[nH]1", "attribute.measured": "IC50 Ratio Aur B/Aur A", "numeric.readout": 1755}

Entry Cc1cc(Nc2cc(C)c(F)c(C[C@@]3(C(=O)O)CCN(Cc4cccc(Cl)c4F)[C@H](C)C3)n2)n[nH]1 : reported IC50 Ratio Aur B/Aur A = ?
443
